Hey, just so you know, these numbers are from ChEMBL document CHEMBL3988442.

Tested Target: Proteasome subunit beta (Trypanosoma cruzi) (UniProt O96673)
Sequence (O96673 as listed by the source): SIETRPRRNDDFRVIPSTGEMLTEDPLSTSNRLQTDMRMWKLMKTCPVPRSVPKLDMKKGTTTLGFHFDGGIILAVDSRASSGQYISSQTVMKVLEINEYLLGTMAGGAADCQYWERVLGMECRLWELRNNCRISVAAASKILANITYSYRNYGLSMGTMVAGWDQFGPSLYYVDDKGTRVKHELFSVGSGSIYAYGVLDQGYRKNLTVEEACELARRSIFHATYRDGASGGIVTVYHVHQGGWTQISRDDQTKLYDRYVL
Measurement Protocol: Trypanosoma cruzi proteasome chymotrypsin-like activity (TcProtChymo) assay. Note: in the data most compounds retested in dose-response had high values.
Assay type: functional
Design: scale not given: direction of the effect not stated beside the values
Condition Notes: 9.37 µM
Collected Percent Effect values appear next to each entry.
The answer is to be given in %; state only the numeric part.

Previously resolved entries follow.
Compound	Percent Effect, %
CC(Cc1ccco1)NC(=O)Nc1cnn(CC(N)=O)c1 (stereo unspecified)	11
CCc1ncc(CNC2CC(=O)N(CCc3cccc(Cl)c3)C2)cn1 (stereo unspecified)	6.76
Cc1ncsc1C(=O)N1CCCN(Cc2cscn2)CC1	-3.8
CN(Cc1ccco1)[C@@H]1CN(C(=O)c2ccnnc2)[C@@H]2CCCO[C@H]12	13.4
COc1ncccc1C(=O)N1CCN(C(=O)Cc2ccccn2)CC1	18

Pending compound:
Return the recorded Percent Effect value; entry: Cc1cc(NC(=O)CN2CCc3nn(C)c(=O)cc3C2)on1 13.9

###

Tested Target: Protein translocase subunit SecA (Escherichia coli (strain K12))
Measurement Protocol: Assay to Identify E. coli SecA ATPase Inhibitors
Format: functional
Set-up: scale not given: direction of the effect not stated beside the values
Condition Notes: 30 µM
Potency and affinity values are given separately.
Measure Name: Percent Effect
Remember to put the unit after the number in your answer.

Previously resolved entries follow.
Compound	Percent Effect
COc1ccc(C2C3=C(COC3=O)Nc3[nH]nc(C)c32)cc1OC (configuration not stated)	2.08%
Cc1cccc(C(=O)Nc2ccc(OC3CCN(C)CC3)cc2)c1	-3.56%
COc1ccccc1C1CNC(=O)c2nc(-c3ncc[nH]3)[nH]c2C1 (configuration not stated)	-0.895%

Return the recorded Percent Effect value; entry: Cn1ccnc1CN1CCN(CC(=O)NCC(F)(F)F)CC1 -2.81%

Return the recorded Percent Effect value; entry: CN(C)C(=O)CN1C[C@@H]2CC[C@H](C1)N(Cc1cc(F)ccc1F)C2 -2.16%

Return the recorded Percent Effect value; entry: CCCNC(=O)Nc1cccc2c1CCN(S(C)(=O)=O)C2 -9.62%

Return the recorded Percent Effect value; entry: Cc1cnn(CC(C)NCc2csc(-c3ccsc3)n2)c1 (configuration not stated) -3.78%

Return the recorded Percent Effect value; entry: CC(C)c1nnc2n1CCN(C(=O)CN1CCc3sccc3C1)C2 -3.25%

Return the recorded Percent Effect value; entry: O=C(CCNC(=O)c1ccoc1)NCc1ccccc1F 2.18%

Return the recorded Percent Effect value; entry: Cc1nn(C)c(N(C)C)c1CNC1CCOc2c(F)cccc21 (configuration not stated) -6.1%

Return the recorded Percent Effect value; entry: Cc1nc(CN2CCOC(CN(C)c3cccnn3)C2)cs1 (configuration not stated) 0.938%

Return the recorded Percent Effect value; entry: CCc1nccn1C1CCCN(C(=O)c2ccc(C(=O)NC)nc2)C1 (configuration not stated) 1.89%

###

Collected Percent Effect values appear next to each entry.
Tested Target: Chromo domain-containing protein 1 (Saccharomyces cerevisiae (strain ATCC 204508 / S288c) (Baker's yeast))
Measurement Protocol: ScCHD-1 Enzyme Inhibition Assay; note: in the data most compounds retested in dose-response had high values
Assay type: functional
Set-up: scale not given: direction of the effect not stated beside the values
Condition Notes: 30 µM
Remember to put the unit after the number in your answer.

Previously resolved entries follow.
Molecule	Measure Name	Result
COCCn1nc(C(=O)N2CCCC2c2cccc(F)c2)ccc1=O (configuration not stated)	Percent Effect	-0.976%
Cc1ccc(C)c(C(NC(=O)C(C)(C)C)c2cccnc2)c1 (configuration not stated)	Percent Effect	-10.2%
CC(C)Sc1nnc(CCNC(=O)OC(C)(C)C)o1	Percent Effect	-10.5%
COC(=O)c1ccc(C2CC(=O)Oc3cc(C)[nH]c(=O)c32)cc1 (configuration not stated)	Percent Effect	-3.36%
Cc1ccc(S(=O)(=O)Nc2ccc(=O)n(C)c2)cc1	Percent Effect	-4.02%
COCC(=O)N1CCCC1c1ccnc(Nc2cnccn2)n1 (configuration not stated)	Percent Effect	-7.89%

Return the recorded Percent Effect value; entry: COc1c(CNCc2cnn(C)c2)c(C(C)C)nn1C -13.8%

Return the recorded Percent Effect value; entry: COc1ccccc1OCC(=O)Nc1ncccc1OC(F)F -3.95%

Return the recorded Percent Effect value; entry: Cc1nc(C2CCCN(C(=O)Cn3ccccc3=O)C2)no1 (configuration not stated) 3.7%

Return the recorded Percent Effect value; entry: Cc1cnn(CCNCc2ccc(C#N)cc2F)c1 -0.768%

Return the recorded Percent Effect value; entry: O=C(NCCc1nnc2n1CCC2)NCC1(c2cccc(F)c2)CC1 1.42%

Return the recorded Percent Effect value; entry: COc1ncccc1CNC(=O)NC1CCOc2ccccc21 (configuration not stated) -3.69%

###

Tested Target: AMP-activated protein kinase, AMPK (Homo sapiens) (UniProt P54646+O43741+P54619+Q9UGJ0+Q9Y478+Q13131+Q9UGI9)
Measurement Protocol: AMP-dependent Kinase enzyme assay. An in vitro enzyme assay that detects ADP turnover that is directly proportional to AMPK activity. This uses naive AMPK that is activated during the assay with MK-8722
Assay type: functional
Set-up: scale not given: direction of the effect not stated beside the values
Condition Notes: 30 µM
Measure Name: Percent Effect (%)
The answer is to be given in %; state only the numeric part.

Compound	Percent Effect / %
COc1cccc(C(=O)N2CCc3ncnc(C)c3CC2)c1	-0.34
CCc1nc(CN2CCCC(N(C)Cc3cnc(C)s3)C2)no1 (stereo unspecified)	-1.7

Return the recorded Percent Effect value; entry: COc1cccc(CC2CN(C3CCN(C(C)=O)CC3)CCO2)c1 (stereo unspecified) 2.17

Return the recorded Percent Effect value; entry: NC(=O)COc1cccc(C(=O)N2CCCC(n3ccnc3)C2)c1 (stereo unspecified) -5.3

###

Collected Percent Effect values appear next to each entry.
Tested Target: Arginase-2, mitochondrial (Homo sapiens) (UniProt P78540)
Sequence (whole entry): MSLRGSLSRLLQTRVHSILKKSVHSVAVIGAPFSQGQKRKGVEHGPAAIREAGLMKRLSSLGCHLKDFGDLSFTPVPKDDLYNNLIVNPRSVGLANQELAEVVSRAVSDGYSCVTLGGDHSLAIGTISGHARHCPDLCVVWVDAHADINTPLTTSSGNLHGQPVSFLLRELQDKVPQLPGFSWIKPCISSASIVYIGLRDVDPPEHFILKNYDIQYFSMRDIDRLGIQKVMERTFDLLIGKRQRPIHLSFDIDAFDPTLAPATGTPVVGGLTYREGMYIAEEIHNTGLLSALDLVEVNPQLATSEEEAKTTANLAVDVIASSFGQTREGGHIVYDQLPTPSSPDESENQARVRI
Measurement Protocol: in vitro enzyme assay to detect the production of urea directly proportional to the activity of Arginase II; note: in the data most compounds retested in dose-response had high values
Assay type: functional
Parameters: scale not given: direction of the effect not stated beside the values
Condition Notes: 33.3 µM
The answer is to be given in %; state only the numeric part.

Return the recorded Percent Effect value; entry: COCc1ccccc1CNc1nnc(C)c(C)c1C#N 4.62

###

Tested Target: Protein translocase subunit SecA (Escherichia coli (strain K12))
Measurement Protocol: Assay to Identify E. coli SecA ATPase Inhibitors
Type: functional
Design: scale not given: direction of the effect not stated beside the values
Condition Notes: 30 µM
Results with a measured potency or affinity are listed apart.
Measure Name: Percent Effect (%)
The answer is to be given in %; state only the numeric part.

Previously resolved entries follow.
Molecule	Measure Name	Result
Cc1cc(CN2CCc3nn(C(C)C)c(=O)cc3C2)no1	Percent Effect	-6.46
COc1cccc(C(=O)N2CCCC(C(=O)CCc3ccccc3)C2)c1 (stereo not drawn)	Percent Effect	-1.46
Cc1nn(C)c(N2CCOCC2)c1CNC1CCOc2ccccc21 (stereo not drawn)	Percent Effect	-4.35
COc1ccc(C2=CCN(C(=O)C3CC(=O)N(C4CC4)C3)CC2)cc1 (stereo not drawn)	Percent Effect	-3.27
CCCNC(=O)C(C)n1cc(Br)cn1 (stereo not drawn)	Percent Effect	-2.1

Fill in: Percent Effect on Protein translocase subunit SecA (Escherichia coli (strain K12)), entry O=C(CCc1nccs1)N1CCN(c2ccc(Br)cn2)CC1 -7.37

Fill in: Percent Effect on Protein translocase subunit SecA (Escherichia coli (strain K12)), entry CC(CNCc1ccc(Cl)c(Cl)c1)Oc1ccccn1 (stereo not drawn) -2.19

Fill in: Percent Effect on Protein translocase subunit SecA (Escherichia coli (strain K12)), entry CN1CCN(C2CCN(CCOc3ccc(F)cc3)CC2)C1=O -8.87

Fill in: Percent Effect on Protein translocase subunit SecA (Escherichia coli (strain K12)), entry Cc1nn(CC(C)C)c(N(C)C)c1CNCc1cc2ccccc2[nH]1 -3.68

###

Organism: Homo sapiens
Measurement Protocol: To identify inhibition of the IFN signalling (Jak-Stat) pathway via expression of an eGFP reporter gene under the control of an IFN-stimulated response element (ISRE) containing MxA promoter.
Type: functional
Set-up: scale not given: direction of the effect not stated beside the values
Condition Notes: 30 µM
Collected Percent Effect values appear next to each entry.
The answer is to be given in %; state only the numeric part.

Previously resolved entries follow.
Compound	Unit Spec	Result
NC(=O)c1csc(C(=O)N2CCCCC2Cn2cccn2)c1 (stereo not drawn)	%	16.2
Cc1cnn(CC2CCCN2CCCc2nc3ccccc3o2)c1 (stereo not drawn)	%	4.32
COc1ccc(CN2CCn3c(CNS(C)(=O)=O)nnc3C2)cc1	%	14.7
CCCc1n[nH]c(C2CN(CCCOc3ccccc3)CCO2)n1 (stereo not drawn)	%	2.3
Cc1ccc(S(=O)(=O)NCCNC(=O)c2ccoc2)cc1F	%	16.4

Return the recorded Percent Effect value; entry: COCC(C)(O)CNC(=O)COc1ccccc1OC (stereo not drawn) 1.8

Return the recorded Percent Effect value; entry: CCC1=N[C@@]2(CC[C@@H]3CN(C(=O)NCC(C)C)C[C@@H]32)C(=O)N1CC(C)C 2.46

Return the recorded Percent Effect value; entry: Cc1nnc(NC(=O)CN(C)CC2CCCN2c2cccnn2)s1 (stereo not drawn) 17.7

Return the recorded Percent Effect value; entry: CCOCCCC(=O)NCc1cn2cc(Br)ccc2n1 -9.79
